Here the recorded inhibition at 10 µM is given for each entry.
Molecular target: YSK1 (Homo sapiens, UniProt O00506)
Construct: purchased DiscoverX (KINOMEscan)
Sequence (O00506 whole entry): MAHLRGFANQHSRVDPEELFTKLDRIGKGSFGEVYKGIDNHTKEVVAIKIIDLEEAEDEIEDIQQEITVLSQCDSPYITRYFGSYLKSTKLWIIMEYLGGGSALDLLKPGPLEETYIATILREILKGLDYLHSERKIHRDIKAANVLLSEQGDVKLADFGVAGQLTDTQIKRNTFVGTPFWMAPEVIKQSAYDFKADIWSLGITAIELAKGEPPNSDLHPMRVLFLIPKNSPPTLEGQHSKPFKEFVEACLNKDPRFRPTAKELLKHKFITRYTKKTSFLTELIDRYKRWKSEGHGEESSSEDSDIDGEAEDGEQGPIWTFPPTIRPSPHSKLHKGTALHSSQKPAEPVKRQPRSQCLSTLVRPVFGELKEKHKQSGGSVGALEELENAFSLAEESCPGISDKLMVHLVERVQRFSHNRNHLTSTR
Experiment: KINOMEscan competitive binding
Conditions: n=1, read-out: Percent inhibition, YSK1
Value expressed in %; do not type the unit.

Q. For the compound `Cc1ccc(O)cc1Nc1ccnc(Nc2cccc(C(N)=O)c2)n1` , report inhibition at 10 µM.
A. 0

Q. Look up and state reported inhibition at 10 µM for `c1ccc(COc2cccc(-c3ccnc4[nH]ccc34)c2)cc1`
A. 0

Q. State, in one line, measured inhibition at 10 µM of `Fc1cccc(COc2ccc(Nc3ncnc4c3CN(CCN3CCOCC3)CC4)cc2Cl)c1`
A. 0
